system: Pseudomonas aeruginosa ATCC 27853; assay type: cell-based; conditions: ATCC 27853
Where a SMILES comes first, the peptide text is derived from it. Bridges are numbered along the chain shown (N, C = ends). [ ]: non-standard residue; d: D form. The star is where a group is joined. X63 = O=C(c1ccc(C(F)(F)F)nc1Cl)*; X20 = O=C(c1ccc(C(F)(F)F)s1)*; Dab = NCC[C@H](N)C(=O)O; Abu = CC[C@H](N)C(=O)O; Dap = NC[C@H](N)C(=O)O
Parameter Minimum inhibitory concentration: see the listing below.
Record the result as a number with its unit.

>>> recorded_measurement("CC[C@@H]1NC(=O)[C@@H](CC(C)C)NC(=O)[C@H](CCN)NC(=O)[C@@H](NC(=O)[C@H](CN)NC(=O)[C@@H](NC(=O)[C@H](CCN)NC(=O)c2ccc(C(F)(F)F)s2)[C@@H](C)O)CCNC(=O)[C@H]([C@@H](C)O)NC(=O)[C@H](CCN)NC(=O)[C@H](CCN)NC1=O [Compound 86] (X20-[Dab]T[Dap][Dab][Dab][dL][Abu][Dab][Dab]T; lactam 4-C)")
"0.5 µg/mL"

With those in mind, consider the next compound.
q: Can you share its Minimum inhibitory concentration? I mean this compound: CC[C@@H]1NC(=O)[C@@H](CC(C)C)NC(=O)[C@H](CCN)NC(=O)[C@@H](NC(=O)[C@H](CN)NC(=O)[C@@H](NC(=O)[C@H](CCN)NC(=O)c2ccc(C(F)(F)F)nc2Cl)[C@@H](C)O)CCNC(=O)[C@H]([C@@H](C)O)NC(=O)[C@H](CCN)NC(=O)[C@H](CCN)NC1=O [Compound 40] (X63-[Dab]T[Dap][Dab][Dab][dL][Abu][Dab][Dab]T; lactam 4-C)
a: 0.5 µg/mL

Measured values drawn from patent US11225505B2 for this set.
